Biological target: OgHAT (OgAT) (Oceanicola granulosus, UniProt Q2CEE2)
Construct: amine-biotinylated, captured on streptavidin CM5 chip; not known to form dimers
Sequence (Q2CEE2 whole entry): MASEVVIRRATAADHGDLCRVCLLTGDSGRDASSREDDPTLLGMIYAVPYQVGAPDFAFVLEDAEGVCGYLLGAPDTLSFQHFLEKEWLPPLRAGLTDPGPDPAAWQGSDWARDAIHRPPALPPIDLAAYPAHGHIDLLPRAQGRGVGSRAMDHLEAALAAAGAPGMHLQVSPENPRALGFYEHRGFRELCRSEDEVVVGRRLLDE
Test: SPR (Biacore […]), […] equilibrium-binding fit
observationType: pKd
Field pKd (float): negative decimal logarithm of the concentration in molar.

Asked: For the compound shown here, CC(=O)SCCNC(=O)CCNC(=O)[C@H](O)C(C)(C)COP(=O)(O)OP(=O)(O)OC[C@H]1O[C@@H](n2cnc3c(N)ncnc32)[C@H](O)[C@@H]1OP(=O)(O)O , give the reported pKd.
Given back: 2.30
